Assay: Pharmacokinetic study in rat (plasma, CSF, brain)
Format: in vivo
Details: male, Sprague-Dawley, CSF and plasma, oral dose of 40 mg/kg, over 24 hrs, read-out: CSF to plasma ratio over 24 hrs
OUTCOME MEASURE: Kp

>>> result("Cc1n[nH]c(C)c1CCCOc1cc(C(=O)O)ccc1F")
"~0.009"

---

Test: Pharmacokinetic study in rat (plasma, CSF, brain)
Assay type: in vivo
Conditions: male, Sprague-Dawley, brain and plasma, oral dose of 40 mg/kg, at 24 hrs, read-out: brain to plasma ratio at 24 hrs
OUTCOME MEASURE: Kp at 24 h

>>> result("Cc1n[nH]c(C)c1CCCOc1cc(C(=O)O)ccc1F")
"~0.008"
